assay: in vitro; design: WST-8 cell viability assay in HepG2 cells; settings: human, hepg2 cells; read-out: IC50
Below: a set of entries, each annotated with reported CC50 at 24 h.

molecule	CC50 at 24 h
CCCCCCCCCCCCCCCC(=O)N[C@@H](CCCNC(=N)N)C(=O)NCc1ccc(CN[C@H](C(=O)O)[C@H](O[C@@H]2O[C@H](CN)[C@@H](O)[C@H]2O)[C@H]2O[C@@H](n3ccc(=O)[nH]c3=O)[C@H](O)[C@@H]2O)cc1 [compound 3, analogue 3]	18 µM
CCCCCCCCCCCCCCCC(=O)N[C@@H](CCCCN)C(=O)Nc1cccc(CN[C@H](C(=O)O)[C@H](O[C@@H]2O[C@H](CN)[C@@H](O)[C@H]2O)[C@H]2O[C@@H](n3ccc(=O)[nH]c3=O)[C@H](O)[C@@H]2O)c1 [compound 6, analogue 6]	16 µM
CCCCCCCCCCCCCCCC(=O)N[C@@H](CCCNC(=N)N)C(=O)NCc1cccc(CN[C@H](C(=O)O)[C@H](O[C@@H]2O[C@H](CN)[C@@H](O)[C@H]2O)[C@H]2O[C@@H](n3ccc(=O)[nH]c3=O)[C@H](O)[C@@H]2O)c1 [compound 4, analogue 4]	19 µM
